- Assay Summary: qHTS assay for small molecule agonists of the antioxidant response element (ARE) signaling pathway (AID 743202); note: potency is the fitted concentration of half-maximal effect
- Assay Context: HepG2 ARE-bla reporter, beta-lactamase FRET, 16 h; series mostly up to 73.3 µM
Results filed as inconclusive are left out. Activity calls are given as the source filed them. Calls come from the whole dose curve; as a rule, active = well fitted activation curve with a large enough effect in the signal ratio in the repeat runs (not every such curve was filed as active); inconclusive = weak or mixed curves, or effect the other way; inactive = no such curve, though single readings can be large or run the other way; the % refers to the signal ratio.
Property Measured: Potency

Consider the reported Potency for these molecules:
COP(=O)(OC)O/C(C)=C/C(=O)N(C)C : inactive
N#CN : inactive
Clc1ccc(C(Cl)(Cl)Cl)cn1 : inactive
CCOC(=O)CC(SP(=S)(OC)OC)C(=O)OCC (centres undefined) : 6.86 µM (active)
O=C(O)C(Cl)Br (centres undefined) : 4.91 µM (active)
C=CC(=O)OCCN(C)C : inactive
CC(=O)CN(CC(C)=O)N=O : inactive
Cc1ccc(S(=O)(=O)N[C@@H](CCCCN)C(=O)CCl)cc1 : inactive
Cc1cc(OC(=O)N(C)C)nn1C(=O)N(C)C : inactive
CCC(=O)OC1(c2ccccc2)CCN(C)CC1 : inactive

Q. Fill blank: measured Potency of the molecule C/C(=N\NC(=O)Nc1cc(F)cc(F)c1)c1ncccc1C(=O)O is ____.
A. inactive

Q. Fill blank: measured Potency of the molecule CC[C@@H](CO)NC(=O)[C@@H]1C=C2c3cccc4c3c(cn4C)C[C@H]2N(C)C1 is ____.
A. inactive

Q. Fill blank: measured Potency of the molecule C[C@H](CN1CCOCC1)C(C(=O)N1CCCC1)(c1ccccc1)c1ccccc1 is ____.
A. inactive

Q. Fill blank: measured Potency of the molecule COc1cc(CC(C)N)cc(OC)c1OC (centres undefined) is ____.
A. inactive

====

- Assay Summary: qHTS assay to identify small molecule agonists of the estrogen related receptor (ERR) signaling pathway from Tox21 library (AID 1224849); note: nearly all actives have a fitted effect of over 15% in size
- Assay Context: ERR reporter cell line, ONE-Glo luciferase, 18 h; at 92.4 µM (top of the series) unless noted
The source made the active and inactive calls. Calls follow the shape of the full dose curve.
Respond using exactly one of the listed classes: Yes = active, No = inactive

Solved entries (count: 5):
COC(=O)c1ccccc1CS(=O)(=O)NC(=O)Nc1nc(OC)cc(OC)n1 : No
CS(=O)(=O)c1ccc(C(=O)C2C(=O)CCCC2=O)c(Cl)c1COCC(F)(F)F : No
COC[C@@H](NC(C)=O)C(=O)NCc1ccccc1 : No
BrCCc1ccccc1 : No
COP(=O)(OC)O/C(C)=C/C(=O)N(C)C : No

Q. I would be grateful if you could indicate the recorded call for O=C(O)C(Br)(Br)Br .
A. No

Q. I would be grateful if you could indicate the recorded call for Cn1c(CCCC(=O)O)nc2cc(N(CCCl)CCCl)ccc21 .
A. No

Q. I would be grateful if you could indicate the recorded call for CC(C)c1ccc(O)cc1 .
A. No

Q. I would be grateful if you could indicate the recorded call for O=C(CCl)NCO .
A. No

Q. I would be grateful if you could indicate the recorded call for O=S1(=O)OCCO1 .
A. No

Q. I would be grateful if you could indicate the recorded call for Cc1ccc2cc(C)ccc2c1 .
A. No

Q. I would be grateful if you could indicate the recorded call for CCC(=O)c1ccc(Cl)cc1 .
A. No

Q. I would be grateful if you could indicate the recorded call for CC[C@@H](CO)NC(=O)[C@@H]1C=C2c3cccc4[nH]cc(c34)C[C@H]2N(C)C1 .
A. No

Q. I would be grateful if you could indicate the recorded call for Nc1c(Cl)c(F)nc(OCC(=O)O)c1Cl .
A. No

Q. I would be grateful if you could indicate the recorded call for O=c1[nH]c2ccccc2o1 .
A. No

Q. I would be grateful if you could indicate the recorded call for Cc1ccc(-c2nc3ccc(C)cn3c2CC(=O)N(C)C)cc1 .
A. Yes

Q. I would be grateful if you could indicate the recorded call for COc1ccccc1OC .
A. No

====

- Assayed Target: Retinoic acid receptor RXR-alpha (Homo sapiens) (UniProt P19793)
- Sequence (P19793 whole entry, looked up): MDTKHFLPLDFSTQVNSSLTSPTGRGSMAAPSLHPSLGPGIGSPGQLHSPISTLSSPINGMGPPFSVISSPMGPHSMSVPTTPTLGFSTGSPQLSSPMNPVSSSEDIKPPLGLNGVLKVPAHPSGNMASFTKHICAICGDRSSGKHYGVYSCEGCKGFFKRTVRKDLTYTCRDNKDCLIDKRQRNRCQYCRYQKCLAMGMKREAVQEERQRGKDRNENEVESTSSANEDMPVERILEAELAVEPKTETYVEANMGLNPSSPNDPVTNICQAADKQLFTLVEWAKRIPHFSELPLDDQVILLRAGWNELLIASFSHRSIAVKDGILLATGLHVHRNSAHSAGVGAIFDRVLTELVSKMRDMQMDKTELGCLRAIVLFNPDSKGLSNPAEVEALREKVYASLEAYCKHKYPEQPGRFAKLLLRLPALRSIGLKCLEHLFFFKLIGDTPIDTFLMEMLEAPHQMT
- Assay Summary: qHTS assay to identify small molecule agonists of the RXR signaling pathway (AID 1159527); note: nearly all actives have a fitted effect of over 35% in size
- Assay Context: HEK293T RXRa-UAS-bla, beta-lactamase ratio, 16 h; series mostly up to 76.8 µM
Inconclusive results are not listed. Active and inactive are the calls of the source. The call rests on the fitted dose curve.
Respond using exactly one of the listed classes: Yes for active, No for inactive

Solved entries (count: 4):
C(COCC1CO1)OCC1CO1 (configuration not stated) : No
C/C=C/CC#N : No
CC(Cc1ccccc1)NCCCCl (configuration not stated) : No
Cc1ccc(Cl)c(O)c1 : No

Turning now to a further record.
Q. I would be grateful if you could indicate the recorded call for CCc1cc(OC)c(C[C@H](C)N)cc1OC .
A. No

====

- Assay Summary: qHTS assay to identify small molecule antagonists of the estrogen related receptor (ERR) signaling pathway from Tox21 library (AID 1224848); note: nearly all actives have a fitted effect of over 50% in size
- Assay Context: ERR reporter cell line, luciferase antagonist mode, 18 h; series mostly up to 92.4 µM
- Excerpt: U.S. Tox21 Program National Center for Advancing Translational Sciences [NCATS] NIH Chemical Genomics Center [NCGC] U.S. Environmental Protection Agency [EPA] National Institutes of Environmental Health Sciences [NIEHS] National Toxicology Program [NTP] U.S. Food and Drug Administration [FDA] Tox21 Assay Overview: Estrogen related receptors (ERRs), the first orphan nuclear receptors discovered, play an important role in the control of cellular energy metabolism. […]
Records with an inconclusive call do not appear. Calls of active or inactive are those of the source. Calls come from the whole dose curve; as a rule, active = well fitted inhibition curve with a large enough effect in the repeat runs; inconclusive = weak or mixed curves; inactive = no such curve, though single readings can be large or run the other way.
Respond using exactly one of the listed classes: Y = active, N = inactive

Solved entries (count: 5):
CC[C@@H](CO)NC(=O)[C@@H]1C=C2c3cccc4c3c(cn4C)C[C@H]2N(C)C1 : N
COc1ccc(CN2CCNCC2)c(OC)c1OC : N
CCN[C@@H](C)Cc1ccccc1 : N
C[C@H](CN1CCOCC1)C(C(=O)N1CCCC1)(c1ccccc1)c1ccccc1 : Y
CN(C)CCN(C)C : N

Q. I would be grateful if you could indicate the recorded call for COC[C@@H](NC(C)=O)C(=O)NCc1ccccc1 .
A. N

Q. I would be grateful if you could indicate the recorded call for CCC1(c2ccccc2)C(=O)N(COC)C(=O)N(COC)C1=O .
A. N

Q. I would be grateful if you could indicate the recorded call for CC[C@@H](CO)NC(=O)[C@@H]1C=C2c3cccc4[nH]cc(c34)C[C@H]2N(C)C1 .
A. N

Q. I would be grateful if you could indicate the recorded call for CCCCS(=O)(=O)Cl .
A. N

Q. I would be grateful if you could indicate the recorded call for Oc1ccc(Cc2ccc(O)cc2)cc1 .
A. N

Q. I would be grateful if you could indicate the recorded call for CC1NCCOC1c1ccccc1 (configuration not stated) .
A. N

Q. I would be grateful if you could indicate the recorded call for COc1cc(CC(C)N)cc(OC)c1OC (configuration not stated) .
A. N

Q. I would be grateful if you could indicate the recorded call for O=C(Cl)c1ccccc1 .
A. N

Q. I would be grateful if you could indicate the recorded call for CCN(CCO)CCn1c(Cc2ccccc2)nc2c1c(=O)n(C)c(=O)n2C .
A. N

Q. I would be grateful if you could indicate the recorded call for c1ccc2c(c1)CCNC2 .
A. N

Q. I would be grateful if you could indicate the recorded call for O=[N+]([O-])CCO .
A. N

Q. I would be grateful if you could indicate the recorded call for CS(=O)(=O)c1ccc(C(=O)C2C(=O)CCCC2=O)c(Cl)c1COCC(F)(F)F .
A. N

Q. I would be grateful if you could indicate the recorded call for BrCCc1ccccc1 .
A. N

Q. I would be grateful if you could indicate the recorded call for COc1ccccc1OC .
A. N

Q. I would be grateful if you could indicate the recorded call for COC(=O)c1ccccc1CS(=O)(=O)NC(=O)Nc1nc(OC)cc(OC)n1 .
A. N

====

- Assayed Target: Cytochrome P450 2D6 (Homo sapiens)
- Assay Summary: Cytochrome P450 Family 2 Subfamily D Member 6 (CYP2D6) small molecule antagonists: luciferase reporter qHTS assay (AID 1671196); note: nearly all actives have a fitted effect of over 50% in size
- Assay Context: P450-Glo CYP2D6 enzyme assay, luciferin luminescence, 1 h; series mostly up to 115 µM
- Excerpt: U.S. Tox21 Program National Center for Advancing Translational Sciences [NCATS] U.S. Environmental Protection Agency [EPA] National Institutes of Environmental Health Sciences [NIEHS] National Toxicology Program [NTP] U.S. Food and Drug Administration [FDA] […] The luciferin products formed are detected with a luciferin detection reagent, and the amount of light produced is proportional to CYP activity. […]
Inconclusive results are not listed. The source made the active and inactive calls. Calls follow the shape of the dose curve; as a rule, active = well fitted inhibition curve with a large enough effect in the repeat runs; inconclusive = weak or mixed curves; inactive = no such curve, though single readings can be large or run the other way.
Respond using exactly one of the listed classes: active, inactive

Solved entries (count: 8):
Clc1ccc(C(Cl)(Cl)Cl)cn1 : inactive
CCOC(=O)C(SP(=S)(OC)OC)c1ccccc1 (stereo unspecified) : active
CC(C)(C)NC[C@H](O)c1ccc(O)cc1Cl : active
Clc1nc(Cl)nc(Nc2ccccc2Cl)n1 : inactive
CCN[C@@H](C)Cc1ccccc1 : active
CCOC(=O)CCl : inactive
N#CN : inactive
[P]#[In] : inactive

Turning now to a further record.
Q. I would be grateful if you could indicate the recorded call for CCCCS(=O)(=O)Cl .
A. inactive
